test system: rabbit skeletal myofibrils (fast skeletal myofibrils); assay: Activation of fast skeletal myofibrils (PUMA assay, PK/LDH-coupled ATPase at pCa25); type: biochemical; conditions: AC1.4 determined according to the procedure of Example 39; reported as class symbols
MEASURE NAME: Mean AC1.4

[[record]]
compound = "CC(C)Cc1ccc(NCC(C)(C)c2ccc(F)cc2)nn1"
target_entity = "rabbit skeletal myofibrils (fast skeletal myofibrils)"
measure_name = "Mean AC1.4"
assay_value = "B (B=1-10 uM)"

[[record]]
compound = "CC(C)(CNc1ccc(-c2cccc(C(N)=O)c2)nn1)c1ccc(F)cc1F"
target_entity = "rabbit skeletal myofibrils (fast skeletal myofibrils)"
measure_name = "Mean AC1.4"
assay_value = "B (B=1-10 uM)"

[[record]]
compound = "CCNc1n[nH]c2ccc(-c3ccc(NCC4(c5ncccc5F)CCC4)nn3)cc12"
target_entity = "rabbit skeletal myofibrils (fast skeletal myofibrils)"
measure_name = "Mean AC1.4"
assay_value = "A (A=<1 uM)"

[[record]]
compound = "CS(=O)(=O)Nc1cccc(-c2ccc(NCC3(c4ncccc4F)CCC3)nn2)c1"
target_entity = "rabbit skeletal myofibrils (fast skeletal myofibrils)"
measure_name = "Mean AC1.4"
assay_value = "B (B=1-10 uM)"

[[record]]
compound = "CC(C)(CNc1ccc(-c2ccc3nc[nH]c(=O)c3c2)nn1)c1ccc(F)cc1"
target_entity = "rabbit skeletal myofibrils (fast skeletal myofibrils)"
measure_name = "Mean AC1.4"
assay_value = "B (B=1-10 uM)"

[[record]]
compound = "CC(C)(CNc1ccc(-c2ccc(N)cc2)nn1)c1ccc(F)cc1"
target_entity = "rabbit skeletal myofibrils (fast skeletal myofibrils)"
measure_name = "Mean AC1.4"
assay_value = "A (A=<1 uM)"

[[record]]
compound = "CNC(=O)c1cc(-c2ccc(NCC3(c4ncccc4F)CCC3)nn2)ccc1F"
target_entity = "rabbit skeletal myofibrils (fast skeletal myofibrils)"
measure_name = "Mean AC1.4"
assay_value = "B (B=1-10 uM)"

[[record]]
compound = "COC(=O)N1CC(CNc2ccc(-c3ccc4[nH]ncc4c3)nn2)(c2ncccc2F)C1"
target_entity = "rabbit skeletal myofibrils (fast skeletal myofibrils)"
measure_name = "Mean AC1.4"
assay_value = "D (D=>20 uM)"

[[record]]
compound = "CC(C)(CNc1ccc(-c2cccc(C(=O)NCCCN)c2)nn1)c1ccc(F)cc1"
target_entity = "rabbit skeletal myofibrils (fast skeletal myofibrils)"
measure_name = "Mean AC1.4"
assay_value = "B (B=1-10 uM)"

[[record]]
compound = "CC(C)(CNc1ccc(C(=O)NC(CCC(N)=O)C(N)=O)nn1)c1ccc(F)cc1 (stereo not drawn)"
target_entity = "rabbit skeletal myofibrils (fast skeletal myofibrils)"
measure_name = "Mean AC1.4"
assay_value = "D (D=>20 uM)"


Problem: Fill in the recorded Mean AC1.4 for this compound, with rabbit skeletal myofibrils (fast skeletal myofibrils) as test system: "O=c1[nH]c2ccc(-c3ccc(NCC4(c5ncccc5F)CCC4)nn3)cc2[nH]1"
Result: B (B=1-10 uM)

Problem: Fill in the recorded Mean AC1.4 for this compound, with rabbit skeletal myofibrils (fast skeletal myofibrils) as test system: "NC(=O)Nc1cccc(-c2ccc(NCC3(c4ncccc4F)CCC3)nn2)c1"
Result: A (A=<1 uM)

Problem: Fill in the recorded Mean AC1.4 for this compound, with rabbit skeletal myofibrils (fast skeletal myofibrils) as test system: "NC(=O)c1cccc(-c2ccc(NCCc3cnccn3)nn2)c1"
Result: D (D=>20 uM)

Problem: Fill in the recorded Mean AC1.4 for this compound, with rabbit skeletal myofibrils (fast skeletal myofibrils) as test system: "CC(C)(CNc1ccc(-c2ccc3[nH]nc(C(N)=O)c3c2)nn1)c1ccc(F)cc1"
Result: A (A=<1 uM)

Problem: Fill in the recorded Mean AC1.4 for this compound, with rabbit skeletal myofibrils (fast skeletal myofibrils) as test system: "COc1ccnc(C2(CNc3ccc(-c4ccc5[nH]ncc5c4)nn3)CCC2)c1"
Result: A (A=<1 uM)

Problem: Fill in the recorded Mean AC1.4 for this compound, with rabbit skeletal myofibrils (fast skeletal myofibrils) as test system: "CC(C)(C)OC(=O)NCCCNC(=O)c1cccc(-c2ccc(NCC(C)(C)c3ccc(F)cc3)nn2)c1"
Result: B (B=1-10 uM)

Problem: Fill in the recorded Mean AC1.4 for this compound, with rabbit skeletal myofibrils (fast skeletal myofibrils) as test system: "COc1cccnc1C1(CNc2ccc(-c3ccc4cn[nH]c4c3)nn2)CCC1"
Result: B (B=1-10 uM)

Problem: Fill in the recorded Mean AC1.4 for this compound, with rabbit skeletal myofibrils (fast skeletal myofibrils) as test system: "c1ccc(C2(CNc3ccc(-c4ccc5[nH]ncc5c4)nn3)CCC2)nc1"
Result: A (A=<1 uM)
